Values compiled from the supplement of paper PMC11061612.

- Tested on: Mewo (Melanoma);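 also: after 72 h of two-drug dosing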
- test details: Bliss excess, mean over the matrix (fraction); higher = more synergy
Kindly state Bliss excess for each of the entries shown.
// no unit string in output, number only

Give recorded Bliss excess with Mewo (Melanoma) for the following compound: COc1cccc(OCCCN)c1-c1cc(Nc2cnc(C#N)cn2)n[nH]1 [Prexasertib] + CN(C)CCCOc1ccc(-c2ccc3ncc4c(c3c2)n(C2CCOCC2)c(=O)n4C)cn1 [AZD0156] (first compound max 1 µM, 7x7, partner max 1 µM)
0.0034

Write down the reported Bliss excess of O=C(c1cc(Cc2n[nH]c(=O)c3ccccc23)ccc1F)N1CCN(C(=O)C2CC2)CC1 [Olaparib] + Cc1c2c(nn1C)CSCc1cc(n(C)n1)CSc1cc(c3ccccc3c1)OCCCc1c(C(=O)O)n(C)c3c-2c(Cl)ccc13 [AZD5991] (first compound max 10 µM, 7x7, partner max 1 µM) , test system: Mewo (Melanoma).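 Also: after 72 h of two-drug dosing.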
-0.0652

Form field - read-out: Bliss excess; system: Mewo (Melanoma); submitted item: CN(CCO)CC[C@H](CSc1ccccc1)Nc1ccc(S(=O)(=O)NC(=O)c2ccc(N3CCC([C@@H](O)c4ccccc4-c4ccc(Cl)cc4)CC3)cc2)cc1S(=O)(=O)C(F)(F)F [AZD4320] + CS(=O)(=O)CCNCc1ccc(-c2ccc3ncnc(Nc4ccc(OCc5cccc(F)c5)c(Cl)c4)c3c2)o1 [Lapatinib] (first compound max 1 µM, 7x7, partner max 10 µM);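 also: after 72 h of two-drug dosing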
-0.0386

###

- Test system: SU-DHL-6 (B-Cell Non-Hodgkin's Lymphoma)
- test details: combination Emax (second highest fraction inhibited in the dose matrix, 72 h); higher = more inhibition; extreme values may be limits of the assay
assay metric: combination Emax
The response must contain the number and no unit.

Look at this compound and give its reported combination Emax. COc1cccc(OCCCN)c1-c1cc(Nc2cnc(C#N)cn2)n[nH]1 [Prexasertib] + CCc1c2c(nc3ccc(O)cc13)-c1cc3c(c(=O)n1C2)COC(=O)[C@]3(O)CC [SN-38] (first compound max 1 µM, 7x7, partner max 0.3 µM)
0.991

Which combination Emax value belongs to CC1(C)CCC(CN2CCN(c3ccc(C(=O)NS(=O)(=O)c4ccc(NCC5CCOCC5)c([N+](=O)[O-])c4)c(Oc4cnc5[nH]ccc5c4)c3)CC2)=C(c2ccc(Cl)cc2)C1 [Venetoclax] + Cn1cnc2c(F)c(Nc3ccc(Br)cc3Cl)c(C(=O)NOCCO)cc21 [Selumetinib] (first compound max 1 µM, 7x7, partner max 3 µM) ?
0.88

Item under review: Cc1cc2ncnn2cc1Nc1ncc2c(n1)n(C1CCOCC1)c(=O)n2C [AZD7648] + O=C(c1cc(Cc2n[nH]c(=O)c3ccccc23)ccc1F)N1CCN(C(=O)C2CC2)CC1 [Olaparib] (first compound max 10 µM, 7x7, partner max 10 µM) . Reported combination Emax?
0.346

Any idea what its combination Emax is? The compound is COc1nnc2ccc(N3CCC(c4ccc(OCCN5CCN(C)C(=O)[C@H]5C)cc4)CC3)nn12 [AZD5153] + C[C@@H]1COCCN1C2=NC(=NC(=C2)C3(CC3)[S@](=N)(=O)C)C4=C5C=CNC5=NC=C4 [AZD6738] (first compound max 1 µM, 7x7, partner max 10 µM)
0.968

Recorded combination Emax for Cc1c2c(nn1C)CSCc1cc(n(C)n1)CSc1cc(c3ccccc3c1)OCCCc1c(C(=O)O)n(C)c3c-2c(Cl)ccc13 [AZD5991] + Cc1cc2ncnn2cc1Nc1ncc2c(n1)n(C1CCOCC1)c(=O)n2C [AZD7648] (first compound max 1 µM, 7x7, partner max 10 µM) , please?
1

State the recorded combination Emax for this entry: CN(CCO)CC[C@H](CSc1ccccc1)Nc1ccc(S(=O)(=O)NC(=O)c2ccc(N3CCC([C@@H](O)c4ccccc4-c4ccc(Cl)cc4)CC3)cc2)cc1S(=O)(=O)C(F)(F)F [AZD4320] + Nc1ccn([C@@H]2O[C@H](CO)[C@@H](O)C2(F)F)c(=O)n1 [Gemcitabine] (first compound max 1 µM, 7x7, partner max 0.3 µM)
0.998

Look up combination Emax for this compound: C=CCn1c(=O)c2cnc(Nc3ccc(N4CCN(C)CC4)cc3)nc2n1-c1cccc(C(C)(C)O)n1 [AZD1775] + O=C(c1cc(Cc2n[nH]c(=O)c3ccccc23)ccc1F)N1CCN(C(=O)C2CC2)CC1 [Olaparib] (first compound max 1 µM, partner max 10 µM)
0.85
